Taken from the supplement of paper PMC4466140.

Reported SPOT peptide array binding signal intensity values for the following binders.
- tgt: CaNbp2
- method_notes: SPOT peptide array binding signal intensity (averaged, normalized) (arbitrary units (background-subtracted, floor 0; scale differs between SH3 domains)); higher = stronger binding of the SH3 domain to the peptide
readout: SPOT peptide array binding signal intensity

binder	prefix_operator	test_result
IFLRISINFPLNYPN	=	2110
NNFYRPLLRSVLVLL	=	72.5
DLPLPDLPPEPPTEL	≤	0
TSIEIPKRSPLRFTS	=	61
PVLPPPRSPNRPTLS	=	126
QHQQRQPKRPKRYSL	=	492
NSMRPPLLIPAATTK	=	291
NRPAIRIPSLKKPAL	=	270
RRSKSLPTTPGIRSG	=	430
VQPTAAPATPPRHIS	≤	0
VYTRTAFQIPGDDKI	≤	0
SPLGAPPPPPHKDHL	≤	0
TYNRTAFQIPGDQSI	≤	0
EVTPKVPERPSRRKT	=	80.8
PPLPRAPPVPPATFE	=	1100
SHRLWLYAAPKRPKT	=	133
STPQTMRQAPKRPDA	=	653
AGKRRLPLVRFKASD	=	384
YSRKKLPVVLSKMTL	=	143
MPAPPPPPPPPPGAF	=	29
RNNRPVPPPPPMRTT	=	312
DDEDVPPQLPTRTKS	≤	0
RAPPPVPKKPSSRIA	=	1040
RLSFFFPLDPAYIRN	=	474
HVRRSILALPLGVLL	=	450
PSTMDFPKLPSFQNS	=	340
IVNKPLPPLPVAGSS	≤	0
QFDLKMPSKPIHNLK	=	202
PPPPPPPPPPLPQSL	=	67.5
NFFRKKLGIPRKLKR	=	189
